Test system: TYKNU
Experiment: fractional viability relative to vehicle; TYKNU is a high-grade serous ovarian cancer line; higher = less growth inhibition
Details: 10uM; 72 h; genotype: sgCTRLA1 (non-targeting control)
Where a name gives a salt, the structure may show the parent alone. In all, about 2,000 compounds were measured (“fractional viability relative to vehicle”: median about 0.91, lowest 2% from about 0.045 on). This is one part of a sample in which the lowest values are shown more often than they occur.
Lab note: anything with fractional viability below 0.6 is marked Criterion met; values at 0.6 or higher are marked Criterion not met.

# compound, cat
rows = [
    ("CCN(CC)CCNC(=O)c1c(C)[nH]c(/C=C2\\C(=O)Nc3ccc(F)cc32)c1C", "Criterion met"),
    ("CCN(C(=O)c1c(O)c2c(Cl)cccc2n(C)c1=O)c1ccccc1", "Criterion not met"),
    ("CC(CNC(=O)c1cccnc1)NC(=O)c1cccnc1 (stereo not given)", "Criterion not met"),
    ("CCN(CC)CCNC(=O)c1ccc(N)cc1 [Procainamide HCl]", "Criterion not met"),
    ("O=C(O)C(Cc1ccccc1[N+](=O)[O-])=NNc1nc(-c2ccc(Cl)c(Cl)c2)cs1 (mixture of isomers)", "Criterion met"),
]

Provenance of the data: the supplement of paper PMC5919970
